System: mock-infected MT-4 cells
ASSAY_SUMMARY: Compound toxicity in mock-infected MT-4 cells (WST-1 assay)
Format: cell-based
CONDITIONS_USED: four days incubation, read-out: TC50 (concentration of compound that results in death of 50% of the host cells)
Can you tell me CC50 for the items I'm about to list?

Problem: CC50 lookup needed for C=C(C)[C@@H]1CC[C@]2(C(=O)NCc3ccccc3C(=O)O)CC[C@]3(C)[C@H](CC[C@@H]4[C@@]5(C)CC[C@H](OC(=O)CC(C)(C)C(=O)O)C(C)(C)[C@@H]5CC[C@]43C)[C@@H]12 , thanks.
Solution: ~6.3 µM

Problem: Try this compound too: C=C(C)[C@@H]1CC[C@]2(C(=O)NCc3ccc(C(=O)O)cc3)CC[C@]3(C)[C@H](CC[C@@H]4[C@@]5(C)CC[C@H](OC(=O)CC(C)(C)C(=O)O)C(C)(C)[C@@H]5CC[C@]43C)[C@@H]12
Solution: ~7.7 µM

Cited source for all entries: patent US20090149429A1
